run_description: chemical genetic growth profiling, strain panel (AID 1159580);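 note: tested at 20 µM; growth read once vehicle control cultures reached saturation at 30 °C; 1 = growth at the plate median or of vehicle wells; lower values mean less growth of the strain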
protocol_conditions: S. cerevisiae deletion strains, growth OD, locus YLR085C, strain ARP6
Out of some 5,500 compounds screened, about 2,000 (36%) were called active. Inconclusive results (about 18%) are left out. Cut-off read from the data, not from the text of the source: active = normalized growth mostly below about 0.91 (no sharp cut-off); inconclusive = no clear call, values can overlap the other calls; inactive = mostly above about 0.92. Some of the results follow.
Output constraint: value belongs to yes (active), no (inactive)

// known answers, use as guide
compound: Cc1cccc(NC(=O)c2ccccc2)c1
assigned_label: no

compound: O=C(NNC(=S)NC1CC2C=CC1C2)c1cccnc1 (stereo unspecified)
assigned_label: no

compound: N#CCC(=O)N(Cc1ccccc1F)C(=O)NC1CCCCC1
assigned_label: no

compound: O=C(Nc1cc(-c2ccccc2)[nH]n1)c1ccccc1
assigned_label: yes

compound: COc1ccc(CCNC(=O)c2ccccc2Cl)cc1OC
assigned_label: no

What was the test verdict on `O=[N+]([O-])c1cc(Cl)c(Sc2ccccc2)cc1Sc1ccccc1` ?
no

Field: outcome | Entry: `O=C(NNC(=S)Nc1cccc(Cl)c1)c1cccnc1`
no

Given `CC(=O)OCCCCN1C(=O)c2ccccc2C1=O` , state the outcome it received in this test.
no

Which result was noted for this compound in the test: `COc1ccccc1NC(=S)NCCc1ccc(OC)c(OC)c1`
no

For `O=C(O)c1ccccc1Sc1c(C(=O)O)cc([N+](=O)[O-])cc1[N+](=O)[O-]` , what call appears in the results of this test?
no

Tell me the assay call for `Cc1nc(C(F)(F)F)nc(Sc2n[nH]c(-c3cc(Cl)cc(Cl)c3)n2)c1C` please.
yes

Assay result, entry O=C(CSCc1c(Cl)cccc1Cl)NNC(=S)NC1CC2C=CC1C2 (stereo unspecified) — outcome?
no

What did this assay record as the result for `N#Cc1cc(I)c(C#N)c(I)c1` ?
no

Please share the test call associated with `C/C(=N/O)c1ccc2c(c1)C(C)(C)CCC2(C)C` .
no

Assay outcome for `CCOC(=O)c1c[nH]c2c(F)cccc2c1=O` : what was it?
no

Which outcome was assigned to `N=C(N)SCc1c(F)cccc1Cl` in this test?
no

Tell me the assay call for `COc1cc(C2Nc3cccc4cccc(c34)N2)cc(OC)c1OC` please.
no

Please share the test call associated with `Cn1c(Sc2ccc(C(F)(F)F)cc2[N+](=O)[O-])nnc1C(F)(F)F` .
no

For `Clc1cc(Cl)cc(Br)c1` , which call appears in the assay record?
no

# lookup: test call for `COc1ccccc1C1CCN(c2ncnc3scc(-c4ccccc4)c23)CC1`
no

###

The following molecules are listed with their measured normalized growth values.
run_description: chemical genetic growth profiling, strain panel (AID 1159580)
protocol_conditions: S. cerevisiae deletion strains, growth OD, locus YMR307W, strain GAS1, active compounds read low
The whole screen tested about 5,500 compounds, of which about 2,000 (36%) were called active. Roughly 18% stayed inconclusive and do not appear here. Some of the results follow.
// keep it numeric: no unit symbol after the value

molecule: CON
normalized growth: 1.09

molecule: Oc1cccc2cccnc12
normalized growth: 0.108

molecule: CNC(=O)c1cc2c(cn1)[nH]c1ccccc12
normalized growth: 0.997

molecule: CC(=O)N[C@H](C(=O)O)C(C)(C)SN=O
normalized growth: 0.987

molecule: CN1CCN(C2=Nc3cc(Cl)ccc3Nc3ccccc32)CC1
normalized growth: 1.1

molecule: O=C1c2ccccc2C(=O)c2ccccc21
normalized growth: 0.804

Which normalized growth value is on record for `NC(=NCCCCCCN=C(N)N=C(N)Nc1ccc(Cl)cc1)N=C(N)Nc1ccc(Cl)cc1` ?
0.0969

Query (molecule): `CC(C)[C@@H]1CC[C@@H](C)CC1=O` ; field requested: normalized growth
1.02

###

run_description: chemical genetic growth profiling, strain panel (AID 1159580)
protocol_conditions: S. cerevisiae deletion strains, growth OD, locus YHR079C, strain IRE1, active compounds read low
The campaign covered roughly 5,500 compounds. About 2,000 (36%) were called active. Roughly 18% stayed inconclusive and do not appear here. Some of the results follow.
Rule: normalized growth below 1 gives criterion met. Equal to or above 1 gives criterion not met.

Item CO/N=C(/C(=O)NC1C(=O)N2C(C(=O)OCOC(=O)C(C)(C)C)=C(/C=C\c3scnc3C)CSC12)c1csc(N)n1 (stereo unspecified) : normalized growth beneath 1, strictly?
criterion not met

###

# normalized growth annotations
run_description: chemical genetic growth profiling, strain panel (AID 1159580)
protocol_conditions: S. cerevisiae deletion strains, growth OD, locus YFR028C, strain CDC14, active compounds read low
Screen size: about 5,500 compounds; about 2,000 (36%) were called active. Not shown: some 18% with an inconclusive outcome. Some of the results follow.
Just the number, please, no unit attached.

Here is how some compounds turned out for normalized growth.
compound: CC1SC(c2cccnc2)N(c2ccc(F)cc2F)C1=O (stereo unspecified)
value_measured: 0.979
--
compound: FC(F)(F)c1c2c(nc3cc(-c4ccco4)nn13)CCC2
value_measured: 0.969
--
compound: O=[N+]([O-])c1ccc(Sc2ccccc2)c([N+](=O)[O-])c1
value_measured: 0.899

Need normalized growth of `CCOC(=O)c1ccc(N=Cc2cc(Cl)cc(Cl)c2O)cc1` , thanks.
0.957

Item `O=[N+]([O-])c1ccc(Sc2ccccc2)cc1O` has what recorded normalized growth?
0.959

###

run_description: chemical genetic growth profiling, strain panel (AID 1159580);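 note: tested at 20 µM; growth read once vehicle control cultures reached saturation at 30 °C; 1 = growth at the plate median or of vehicle wells; lower values mean less growth of the strain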
protocol_conditions: S. cerevisiae deletion strains, growth OD, locus YCL061C, strain MRC1, active compounds read low
The whole screen tested about 5,500 compounds, of which about 2,000 (36%) were called active. Roughly 18% stayed inconclusive and do not appear here. The list shows a part of the results.
recorded_metric: normalized growth
Field format: numeric only.

Solved cases (5 shown):
compound: CC(C)[C@@H]1CC[C@@H](C)C[C@H]1OC(=O)c1ccccc1
normalized growth: 1
//
compound: CCOC(=O)CC(=O)CSc1nnc(N)s1
normalized growth: 1.04
//
compound: CC1CC(OC(=O)c2ccccc2O)CC(C)(C)C1 (stereo not drawn)
normalized growth: 0.983
//
compound: Cc1cc(Oc2c([N+](=O)[O-])cc(C(F)(F)F)cc2[N+](=O)[O-])c2c(Cl)ccc(C)c2n1
normalized growth: 0.948
//
compound: CC12CCC(OC(=O)c3ccccc3)CC1CCc1ccccc12 (stereo not drawn)
normalized growth: 0.998

Which normalized growth is reported for this compound? `CC(=O)c1ccc(Sc2ccccn2)c([N+](=O)[O-])c1`
1.02

Value lookup for normalized growth; key = CCOC(=O)c1ccc(N2CC3CCCCN3C2c2ccc(Cl)c(Cl)c2)cc1 (stereo not drawn)
0.991

Fill in the blank: the reported normalized growth of `CC(C)Cn1c(=O)n(C)c(=O)c2[nH]cnc21` is ____.
1

So what does the record say about normalized growth for NC(Cc1ccc(Cl)cc1)C(=O)O (stereo not drawn) ?
1.01

###

run_description: chemical genetic growth profiling, strain panel (AID 1159580);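 note: tested at 20 µM; growth read once vehicle control cultures reached saturation at 30 °C; 1 = growth at the plate median or of vehicle wells; lower values mean less growth of the strain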
protocol_conditions: S. cerevisiae deletion strains, growth OD, locus YJL187C, strain SWE1 (second series), active compounds read low
Hit rate of the full screen: of about 5,500 compounds, about 2,000 (36%) were called active. Not shown: some 18% with an inconclusive outcome. This is one part of the list.
The following compounds are listed with their measured normalized growth values.

compound: NS(=O)(=O)c1cc2c(cc1Cl)NCNS2(=O)=O
normalized growth: 1.01 (inactive)

compound: O=C(O)CCC(=O)OC[C@@H](NC(=O)C(Cl)Cl)[C@H](O)c1ccc([N+](=O)[O-])cc1
normalized growth: 1 (inactive)

compound: Oc1cccc2cccnc12
normalized growth: 0.057 (active)

Give its normalized growth value. Item: CNC(C)[C@@H]1CC[C@@H](N)[C@@H](OC2[C@@H](N)C[C@@H](N)[C@H](OC3OC[C@](C)(O)[C@H](NC)[C@H]3O)[C@H]2O)O1 (some centres undefined)
1.01 (inactive)

Reported normalized growth for `CCCc1ncc(C[n+]2ccccc2C)c(N)n1` : what is it?
0.988 (inactive)

Using the record for C[N+]12CCC(CC1)C(OC(=O)C(O)(c1ccccc1)c1ccccc1)C2 (centres undefined) , report its normalized growth.
0.974 (inactive)

normalized growth for `CC[C@H]1OC(=O)[C@H](C)[C@@H](O[C@H]2C[C@@](C)(OC)[C@@H](O)[C@H](C)O2)[C@H](C)[C@@H](O[C@@H]2O[C@H](C)C[C@H](N(C)C)[C@H]2O)[C@](C)(O)C[C@@H](C)/C(=N/OCOCCOC)[C@H](C)[C@@H](O)[C@]1(C)O` ?
0.97 (inactive)

Recorded normalized growth of `O=C(O)c1cccnc1C(=O)O` , please.
1.05 (inactive)

Which normalized growth value is on record for `CC(C)N=C(N)N=C(N)Nc1ccc(Cl)cc1` ?
1.01 (inactive)

###

run_description: chemical genetic growth profiling, strain panel (AID 1159580);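 note: tested at 20 µM; growth read once vehicle control cultures reached saturation at 30 °C; 1 = growth at the plate median or of vehicle wells; lower values mean less growth of the strain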
protocol_conditions: S. cerevisiae deletion strains, growth OD, locus YDR069C, strain doa4, active compounds read low
In all, about 5,500 compounds went through this assay and about 2,000 (36%) were called active. Another 18% or so got no clear call; they are omitted. The list shows a part of the results.
# key: entry, value: normalized growth
Field format: numeric only.

molecule: CON
normalized growth: 1.02
//
molecule: O=C1C=CC(=O)c2c(O)c(Cl)c(Cl)c(O)c21
normalized growth: 0.0731

# input molecule: Oc1cc2c(cc1O)C(c1ccccc1)CNCC2 (centres undefined) ; wanted: its normalized growth
0.974

Record request: normalized growth value, item CCCC(=O)Nc1ccc(OCC(O)CNC(C)C)c(C(C)=O)c1 (centres undefined)
1.01

# lookup: normalized growth of `O=c1c(O)c(-c2ccccc2)oc2cccc(O)c12`
0.788

FYI, the data here is from PubChem BioAssay AID1159580.
